# Tested on: 324938-238-R-J1-PDC complex spheroid growth, % test/control
# assay.summary: Anticancer human tumor 324938-238-R-J1-PDC patient-derived bladder carcinoma cell line growth inhibition [AhR]
# setup.conditions: second compound 10 µM; first compound 10 µM; stronger effect = lower value
For each entry below, report its viability, T/C value.
Number only, in %; omit the unit.

Give viability, T/C (324938-238-R-J1-PDC complex spheroid growth, % test/control) of the following compound: CC(C)c1c(-c2ccccc2)nc2c(C#N)c[nH]n2c1=O + CC(CO)NC(=O)c1cc(-c2ccc(Cl)cc2)nn(-c2cnn(C)c2)c1=O
56.5

Give viability, T/C (324938-238-R-J1-PDC complex spheroid growth, % test/control) of the following compound: COc1cc(Nc2ncc3c(n2)-c2ccc(Cl)cc2C(c2c(F)cccc2OC)=NC3)ccc1C(=O)O + Cc1ccccc1N=Nc1ccc(NC(=O)c2ccnn2C)c(C)c1
41.7

Give viability, T/C (324938-238-R-J1-PDC complex spheroid growth, % test/control) of the following compound: CC1(C)CCC(CN2CCN(c3ccc(C(=O)NS(=O)(=O)c4ccc(NCC5CCOCC5)c([N+](=O)[O-])c4)c(Oc4cnc5[nH]ccc5c4)c3)CC2)=C(c2ccc(Cl)cc2)C1 + Cc1ccccc1N=Nc1ccc(NC(=O)c2ccnn2C)c(C)c1
41.9

Give viability, T/C (324938-238-R-J1-PDC complex spheroid growth, % test/control) of the following compound: CC1COCCN1c1cc(C2(S(C)(=N)=O)CC2)nc(-c2ccnc3[nH]ccc23)n1 (centres undefined) + Cc1ccccc1N=Nc1ccc(NC(=O)c2ccnn2C)c(C)c1
40.8

----------
For each entry below, report its pIC50 value.
# System: 324938-238-R-J1-PDC complex spheroid growth, % test/control
# assay.summary: Anticancer human tumor 324938-238-R-J1-PDC cell line growth inhibition [AhR];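 note: spheroids exposed to agents for seven days before viability read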
# setup.conditions: curve of first compound; second compound 0.316 µM
pIC50: −log10 of the molar value.

Need pIC50, item COc1ccc([C@@H](O)c2cc(-c3ncnc4cc(N5CCOCC5)ccc34)c(F)cc2Cl)nn1 + Cc1ccccc1N=Nc1ccc(NC(=O)c2ccnn2C)c(C)c1
< 5.00

Need pIC50, item CCN(c1cc(-c2ccc(CN3CCOCC3)cc2)cc(C(=O)NCc2c(C)cc(C)[nH]c2=O)c1C)C1CCOCC1 + Cc1cncc(-c2nc(NCCc3c[nH]c4ccccc34)c3ncn(C(C)C)c3n2)c1
< 5.52

Need pIC50, item COc1cccc2c1C(=O)c1c(O)c3c(c(O)c1C2=O)CC(O)(C(=O)CO)CC3OC1CC(N)C(O)C(C)O1 (configuration not stated) + Cc1ccccc1N=Nc1ccc(NC(=O)c2ccnn2C)c(C)c1
> 7.50

Need pIC50, item CC[C@@]1(O)C(=O)OCc2c1cc1n(c2=O)Cc2cc3c(CN(C)C)c(O)ccc3nc2-1 + Cc1cncc(-c2nc(NCCc3c[nH]c4ccccc34)c3ncn(C(C)C)c3n2)c1
< 7.00

Need pIC50, item Nc1ccn(C2OC(CO)C(O)C2(F)F)c(=O)n1 (configuration not stated) + Cc1cncc(-c2nc(NCCc3c[nH]c4ccccc34)c3ncn(C(C)C)c3n2)c1
< 5.00

Need pIC50, item Nc1ccn(C2OC(CO)C(O)C2(F)F)c(=O)n1 (configuration not stated) + Cc1ccccc1N=Nc1ccc(NC(=O)c2ccnn2C)c(C)c1
> 7.50

Need pIC50, item O=C(c1cc(Cc2n[nH]c(=O)c3ccccc23)ccc1F)N1CCN(C(=O)C2CC2)CC1 + Cc1cncc(-c2nc(NCCc3c[nH]c4ccccc34)c3ncn(C(C)C)c3n2)c1
< 5.00

----------
# Tested on: 324938-238-R-J1-PDC complex spheroid growth, % test/control
# assay.summary: Anticancer human tumor 324938-238-R-J1-PDC cell line growth inhibition [AhR]; active = viability on the fitted dose curve at most 10% of control; inactive = the rest;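 note: spheroids exposed to agents for seven days before viability read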
# setup.conditions: second compound 1 µM; first compound 0.3 µM
Response enum: 1 (active), -1 (inactive)

Any idea what this test logged for CC(C)CC(NC(=O)C(Cc1ccccc1)NC(=O)c1cnccn1)B(O)O (configuration not stated) + Cc1cncc(-c2nc(NCCc3c[nH]c4ccccc34)c3ncn(C(C)C)c3n2)c1 ?
1

Any idea what this test logged for CCN(c1cc(-c2ccc(CN3CCOCC3)cc2)cc(C(=O)NCc2c(C)cc(C)[nH]c2=O)c1C)C1CCOCC1 + CC(CO)NC(=O)c1cc(-c2ccc(Cl)cc2)nn(-c2cnn(C)c2)c1=O ?
-1

Any idea what this test logged for CCN(c1cc(-c2ccc(CN3CCOCC3)cc2)cc(C(=O)NCc2c(C)cc(C)[nH]c2=O)c1C)C1CCOCC1 + Cc1cncc(-c2nc(NCCc3c[nH]c4ccccc34)c3ncn(C(C)C)c3n2)c1 ?
-1

Any idea what this test logged for Nc1ncn(C2CC(O)C(CO)S2)c(=O)n1 (configuration not stated) + Cc1ccccc1N=Nc1ccc(NC(=O)c2ccnn2C)c(C)c1 ?
-1

Any idea what this test logged for CC(C)CC(NC(=O)C(Cc1ccccc1)NC(=O)c1cnccn1)B(O)O (configuration not stated) + CC(CO)NC(=O)c1cc(-c2ccc(Cl)cc2)nn(-c2cnn(C)c2)c1=O ?
1

Any idea what this test logged for CCc1c2c(nc3ccc(O)cc13)-c1cc3c(c(=O)n1C2)COC(=O)[C@]3(O)CC + Cc1ccccc1N=Nc1ccc(NC(=O)c2ccnn2C)c(C)c1 ?
-1

Any idea what this test logged for O=C(C=Cn1cnc(-c2cc(C(F)(F)F)cc(C(F)(F)F)c2)n1)NNc1cnccn1 + Cc1cncc(-c2nc(NCCc3c[nH]c4ccccc34)c3ncn(C(C)C)c3n2)c1 ?
-1

----------
For each entry below, report its viability, T/C value.
# Test system: 324938-238-R-J1-PDC complex spheroid growth, % test/control
# assay.summary: Anticancer human tumor 324938-238-R-J1-PDC cell line growth inhibition [AhR];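 note: spheroids exposed to agents for seven days before viability read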
# setup.conditions: second compound 0.1 µM; first compound 0.03 µM; stronger effect = lower value
Number only, in %; omit the unit.

Need viability, T/C, item O=C(C=Cn1cnc(-c2cc(C(F)(F)F)cc(C(F)(F)F)c2)n1)NNc1cnccn1 + Cc1ccccc1N=Nc1ccc(NC(=O)c2ccnn2C)c(C)c1
95.5

Need viability, T/C, item CCc1c2c(nc3ccc(O)cc13)-c1cc3c(c(=O)n1C2)COC(=O)[C@]3(O)CC + Cc1ccccc1N=Nc1ccc(NC(=O)c2ccnn2C)c(C)c1
15.2

Need viability, T/C, item O=C(C=Cn1cnc(-c2cc(C(F)(F)F)cc(C(F)(F)F)c2)n1)NNc1cnccn1 + CC(CO)NC(=O)c1cc(-c2ccc(Cl)cc2)nn(-c2cnn(C)c2)c1=O
77.4

Need viability, T/C, item CC(C)CC(NC(=O)C(Cc1ccccc1)NC(=O)c1cnccn1)B(O)O (stereo not given) + CC(CO)NC(=O)c1cc(-c2ccc(Cl)cc2)nn(-c2cnn(C)c2)c1=O
0.06

Need viability, T/C, item CCc1c2c(nc3ccc(O)cc13)-c1cc3c(c(=O)n1C2)COC(=O)[C@]3(O)CC + Cc1cncc(-c2nc(NCCc3c[nH]c4ccccc34)c3ncn(C(C)C)c3n2)c1
65.7

----------
For each entry below, report its IC50 value.
# System: 324938-238-R-J1-PDC complex spheroid growth, % test/control
# assay.summary: Anticancer human tumor 324938-238-R-J1-PDC cell line growth inhibition [AhR];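 note: spheroids exposed to agents for seven days before viability read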
# setup.conditions: curve of first compound; second compound 1 µM

Need IC50, item COc1ccc([C@@H](O)c2cc(-c3ncnc4cc(N5CCOCC5)ccc34)c(F)cc2Cl)nn1 + Cc1cncc(-c2nc(NCCc3c[nH]c4ccccc34)c3ncn(C(C)C)c3n2)c1
> 10 µM

Need IC50, item COc1ccc([C@@H](O)c2cc(-c3ncnc4cc(N5CCOCC5)ccc34)c(F)cc2Cl)nn1 + Cc1ccccc1N=Nc1ccc(NC(=O)c2ccnn2C)c(C)c1
> 10 µM

Need IC50, item CC1(C)CCC(CN2CCN(c3ccc(C(=O)NS(=O)(=O)c4ccc(NCC5CCOCC5)c([N+](=O)[O-])c4)c(Oc4cnc5[nH]ccc5c4)c3)CC2)=C(c2ccc(Cl)cc2)C1 + CC(CO)NC(=O)c1cc(-c2ccc(Cl)cc2)nn(-c2cnn(C)c2)c1=O
> 10 µM

Need IC50, item Nc1ccn(C2OC(CO)C(O)C2(F)F)c(=O)n1 (configuration not stated) + Cc1ccccc1N=Nc1ccc(NC(=O)c2ccnn2C)c(C)c1
< 0.0316 µM

Need IC50, item Nc1ncn(C2CC(O)C(CO)O2)c(=O)n1 (configuration not stated) + Cc1cncc(-c2nc(NCCc3c[nH]c4ccccc34)c3ncn(C(C)C)c3n2)c1
> 1 µM

Need IC50, item CC(C)c1c(-c2ccccc2)nc2c(C#N)c[nH]n2c1=O + Cc1ccccc1N=Nc1ccc(NC(=O)c2ccnn2C)c(C)c1
> 10 µM

Need IC50, item Nc1ccn(C2OC(CO)C(O)C2(F)F)c(=O)n1 (configuration not stated) + Cc1cncc(-c2nc(NCCc3c[nH]c4ccccc34)c3ncn(C(C)C)c3n2)c1
> 10 µM
